Where these numbers come from: PubChem BioAssay

Test: liver-stage malaria parasite growth inhibition, primary screen, cell-based, HepG2, luciferase luminescence, HepG2 viability (AID 624349);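 further: 100% = mean of DMSO negative control wells on the same plate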
Details: P. berghei liver stage in HepG2, luciferase luminescence, concentration not given here; measured here: HepG2 viability without parasites
observable: viability (%)
Numbers only, in %.

Documented viability of CC1=C(/C=C/C(C)=C/C=C/C(C)=C/C=C/C=C(C)/C=C/C=C(C)/C=C/C2=C(C)C(=O)CCC2(C)C)C(C)(C)CCC1=O : 102

Documented viability of C[C@@H]1O[C@@H](OC[C@H]2OC(Oc3c(-c4ccc(OCCO)c(OCCO)c4)oc4cc(OCCO)cc(O)c4c3=O)[C@H](O)[C@@H](O)[C@@H]2O)[C@H](O)[C@H](O)[C@H]1O (stereo not given in full) : 89.1

Documented viability of Cc1onc(-c2ccccc2)c1C(=O)NC1C(=O)N2C1SC(C)(C)C2C(=O)O (stereo not given) : 137

Record viability for all entries; do not skip any.
1. CO[C@H]1C=CO[C@@]2(C)Oc3c(C)c(O)c4c(O)c(c5c(c4c3C2=O)NC2(CCN(CC(C)C)CC2)N=5)=NC(=O)C(C)=CC=C[C@H](C)[C@H](O)[C@@H](C)[C@@H](O)[C@@H](C)[C@H](OC(C)=O)[C@@H]1C
2. CCN[C@@H]1C[C@H](N)[C@@H](O[C@H]2OC(CN)=CC[C@H]2N)[C@H](O)[C@H]1OC1OC[C@](C)(O)[C@H](NC)[C@H]1O (stereo not given in full)
3. CC1c2cccc(O)c2C(O)=C2C(=O)C3(O)C(O)=C(C(N)=O)C(=O)C(N(C)C)C3C(O)C21 (stereo not given)
4. O=c1ncc(F)c[nH]1
5. COc1cccc(-c2cc(=O)c3ccccc3o2)c1N
6. CC(=O)Oc1c(C)c(C)c2c(c1C)CCC(C)(CCCC(C)CCCC(C)CCCC(C)C)O2 (stereo not given)

output:
1. 56.4
2. 99.2
3. 132
4. 68.9
5. 68.4
6. 96

Record viability for all entries; do not skip any.
1. COc1cc(NS(C)(=O)=O)ccc1Cc1c2ccccc2nc2ccccc12
2. Cc1c(O)c(=O)ccn1C
3. C#C[C@]1(O)CCC2C3CCc4cc(OC)ccc4C3CC[C@@]21C (stereo not given in full)
4. N[C@@H](C(=O)N[C@@H]1C(=O)N2C(C(=O)O)=C(CSc3cn[nH]n3)CS[C@H]12)c1ccc(O)cc1 (tested in a mixture with another compound)
5. COc1cc(/C=C/c2ccc(O)cc2)cc(OC)c1

output:
[143, 77.2, 131, 72.4, 70.6]

Record viability for all entries; do not skip any.
1. N[C@@H](CC(=O)N1CCn2c(nnc2C(F)(F)F)C1)Cc1cc(F)c(F)cc1F
2. C=C1CC[C@H](O)C/C1=C/C=C1\CCCC2(C)C1CCC2C(C)CCCC(C)C (stereo not given in full)
3. CC(=O)NCCCCCCNC(C)=O
4. C[C@H]1O[C@@H](O[C@H]2[C@@H](O)C[C@H](O[C@H]3[C@@H](O)C[C@H](O[C@H]4CC[C@@]5(C)[C@H](CC[C@@H]6[C@@H]5C[C@@H](O)[C@]5(C)C(C7=CC(=O)OC7)CC[C@]65O)C4)O[C@@H]3C)O[C@@H]2C)C[C@H](O)[C@@H]1O (stereo not given in full)

output:
95.5
104
66.5
8.28

Record viability for all entries; do not skip any.
1. CC[C@]1(O)CC2CN(CCc3c([nH]c4ccccc34)[C@@](C(=O)OC)(c3cc4c(cc3OC)N(C)[C@H]3[C@@](O)(C(N)=O)[C@H](O)[C@]5(CC)C=CCN6CC[C@]43[C@@H]65)C2)C1 (stereo not given in full)
2. CN1CCN(c2nc3cc(C(F)(F)F)ccc3n3cccc23)CC1
3. Oc1ccc2ccccc2c1SSc1c(O)ccc2ccccc12
4. O=C(NC(CO)C(O)c1ccc([N+](=O)[O-])cc1)C(Cl)Cl (stereo not given)
5. C[C@]12CCC3c4ccc(OS(=O)(=O)O)cc4CCC3C1CCC2=O (stereo not given in full)
6. CC(C)(C)NC(=O)[C@H]1CCC2C3CCC4NC(=O)C=C[C@]4(C)C3CC[C@@]21C (stereo not given in full)
7. CC1(C)C2CC[C@]3(C)C(C(=O)C=C4[C@@H]5C[C@@](C)(C(=O)O)CC[C@]5(C)CC[C@]43C)[C@@]2(C)CC[C@@H]1O (stereo not given in full)

output:
135
68
87.1
87.3
102
97.9
71

Record viability for all entries; do not skip any.
1. C=C(C)[C@H]1CC=C(C(=O)O)CC1
2. CC(=CCC1=C(C)C(=O)c2ccccc2C1=O)CCCC(C)CCCC(C)CCCC(C)C (stereo not given)
3. CC(=O)Oc1ccc2c(c1)CCC1C2CC[C@@]2(C)C1CC[C@@H]2OC(C)=O (stereo not given in full)
4. COc1nccc(-c2c(-c3ccc(F)cc3)ncn2C2CCC(O)CC2)n1 (stereo not given)
5. Nc1nc2ccc(Cl)cc2c2nc(-c3ccco3)nn12
6. CC12CCC(=O)C=C1CCC1C2[C@@H](O)CC2(C)C1CC[C@]2(O)C(=O)COP(=O)(O)O (stereo not given in full)
7. CCOC(=O)OC(C)OC(=O)C1N2C(=O)C(NC(=O)[C@H](N)c3ccccc3)C2SC1(C)C (stereo not given in full)
8. OC[C@H]1O[C@H](O[C@]2(CCl)O[C@H](CCl)[C@@H](O)[C@@H]2O)[C@H](O)[C@@H](O)[C@H]1Cl

output:
1. 69.4
2. 97.8
3. 70.5
4. 82.3
5. 75.1
6. 91.2
7. 104
8. 98.6

Record viability for all entries; do not skip any.
1. CNCC[C@@H](Oc1ccccc1C)c1ccccc1
2. Nc1ccc2cn[nH]c2c1

output:
1. 66.2
2. 64.9
